Tested on: NOMO1
procedureDetails: cell viability relative to DMSO control; higher = less cytotoxic
conditionLabel: RPMI 5 mM glucose + 10% dialyzed FBS; 48 h; 0.0211 µM
Here, each record is paired with measured cell viability data.
I'd appreciate it if you wrote the number followed by its unit.

So what cell viability did "CC(C)(O)CC[C@@H](O)[C@](C)(O)[C@H]1CC[C@@]2(O)C/3=C/C(=O)[C@@H]4C[C@@H](O)[C@@H](O)C[C@]4(C)[C@H]3CC[C@]12C" get with NOMO1?
95.2%

Can you check "CN[C@@H](C)[C@H]1[C@H](O)C[C@@]2(C)[C@@H]3CC[C@H]4C(C)(C)[C@@H](NC)CC[C@@]45C[C@@]35CC[C@]12C" next?
99.6%

Can you check "CC[C@H](/C=C/[C@@H](C)[C@H]1CC[C@H]2[C@@H]3CC=C4C[C@@H](O)CC[C@]4(C)[C@H]3CC[C@]12C)C(C)C" next?
84.5%

Can you check "C[C@H]1C[C@@H]2[C@H](CC[C@@]3(C)[C@H]2CC[C@]3(OC(C)=O)C(C)=O)[C@@]\4(C)CCC(=O)\C=C14" next?
88.5%

Can you check "FC1=CC=C(C=C1)N2/C=C\C=C(C(=O)NC3=CC=C(OC4=C5C=C[NH]C5=NC=C4)C(=C3)F)/C2=O" next?
107%

Can you check "C[C@@H](Oc1cc(-c2cnn(C3CCNCC3)c2)cnc1N)c1c(Cl)ccc(F)c1Cl" next?
124%

Can you check CC1=C(C)C(=O)C(C(CCCCCC(=O)O)c2ccccc2)=C(C)C1=O (stereo not given) next?
87.7%

Can you check O=C(O)CCC1CCC(c2cc(F)ccc2F)([S+](=O)([O-])c2ccc(Cl)cc2)CC1 (stereo not given) next?
129%

Can you check "O=C1NC(=O)/C(=C/c2ccc3nccc(-c4ccncc4)c3c2)S1" next?
97.3%

Can you check "COc1ccc([C@@H]2CC(=O)c3c(O)cc(O[C@@H]4O[C@H](CO[C@@H]5O[C@@H](C)[C@H](O)[C@@H](O)[C@H]5O)[C@@H](O)[C@H](O)[C@H]4O)cc3O2)cc1O" next?
113%

---

System: SEM cells
procedureDetails: cell viability relative to DMSO control; higher = less cytotoxic
conditionLabel: HPLM + 10% dialyzed FBS; 48 h; 5.12 µM
measureName: cell viability (%)
API: value field is a number in %; no unit string.

[[record]]
compound = "CCOC(=O)[C@@H](N)Cc1ccc(-c2cc(O[C@H](c3ccc(Cl)cc3-n3ccc(C)n3)C(F)(F)F)nc(N)n2)cc1.O=C(O)CNC(=O)c1ccccc1"
systemname = "SEM cells"
measured = 115

[[record]]
compound = "COC(=O)Nc1cc(Nc2cc(NC3CC3)c3ncc(C#N)n3n2)c(Cl)c(N2CCN(C)CC2)c1"
systemname = "SEM cells"
measured = 37.9

[[record]]
compound = "CCN1\\C=C(\\C(O)=O)C(=O)C2=C1C=C(N3CCNCC3)C(=C2)F"
systemname = "SEM cells"
measured = 90.6

[[record]]
compound = "ClC1=CC=C(C=C1)C(C#N)C2=C(Cl)C=C(C=C2Cl)N3\\N=C/C(=O)NC3=O (centres undefined)"
systemname = "SEM cells"
measured = 86.4

[[record]]
compound = "CC1=C(C)C(=O)C(C(CCCCCC(=O)O)c2ccccc2)=C(C)C1=O (centres undefined)"
systemname = "SEM cells"
measured = 59.7

[[record]]
compound = "CC(C)N[C@@H]1CCn2c(=O)[nH]c3cccc(c32)[C@H]1O"
systemname = "SEM cells"
measured = 122

[[record]]
compound = "CC[C@H](NC1=C2N=C[NH]C2=NC=N1)C/3=N/C4=C(C(=CC=C4)F)C(=O)N3C5=CC=CC=C5"
systemname = "SEM cells"
measured = 81.7

[[record]]
compound = "CCN(CC)CCCCNc1ncc2cc(-c3cc(OC)cc(OC)c3)c(NC(=O)NC(C)(C)C)nc2n1"
systemname = "SEM cells"
measured = 70.3


Consider the record given below.
So what cell viability did "CCCCC(=O)O[C@]1(C(=O)CO)[C@H](C)C[C@H]2[C@@H]3CCC4=CC(=O)C=C[C@]4(C)[C@@]3(F)[C@@H](O)C[C@@]21C" get with SEM cells?
71

---

Tested on: SEM cells
procedureDetails: cell viability relative to DMSO control; higher = less cytotoxic
conditionLabel: HPLM + 10% dialyzed FBS; 48 h; 0.000781 µM
measureName: cell viability
I'd appreciate it if you wrote the number followed by its unit.

[[record]]
compound = "C[C@@H]1COCCN1c1cc(C2([S@+](C)(=N)[O-])CC2)nc(-c2ccnc3[nH]ccc23)n1"
measured = "90.4%"

[[record]]
compound = "O=C(NCC1CCCCN1)c1cc(OCC(F)(F)F)ccc1OCC(F)(F)F (stereo unspecified)"
measured = "104%"

[[record]]
compound = "CCN(CC)CCOc1ccc(/C(=C(\\Cl)c2ccccc2)c2ccccc2)cc1"
measured = "111%"

[[record]]
compound = "CCCCC(=O)O[C@]1(C(=O)CO)[C@H](C)C[C@H]2[C@@H]3CCC4=CC(=O)C=C[C@]4(C)[C@@]3(F)[C@@H](O)C[C@@]21C"
measured = "102%"


Consider the record given below.
What measured cell viability goes with "COc1ccc([C@@H]2CC(=O)c3c(O)cc(O[C@@H]4O[C@H](CO[C@@H]5O[C@@H](C)[C@H](O)[C@@H](O)[C@H]5O)[C@@H](O)[C@H](O)[C@H]4O)cc3O2)cc1O" ?
98.6%

---

Here, each record is paired with measured cell viability data.
System: P12-Ichikawa
procedureDetails: cell viability relative to DMSO control; higher = less cytotoxic
conditionLabel: RPMI 5 mM glucose + 10% dialyzed FBS; 48 h; 0.000781 µM
API: value field is a number in %; no unit string.

[[record]]
compound = "CC[C@]12CC[C@H]3[C@@H](CCC/4=C/C(=O)CC[C@H]34)[C@@H]1\\C=C/[C@@]2(O)C#C"
systemname = "P12-Ichikawa"
valueunits = "%"
measured = 106


So what cell viability did "c1ccc(CCCN2CCN(CCOC(c3ccccc3)c3ccccc3)CC2)cc1" get with P12-Ichikawa?
83.7

Can you check "CC(C)N[C@@H]1CCn2c(=O)[nH]c3cccc(c32)[C@H]1O" next?
105

Can you check "CN1CCN(C2=Nc3cc(Cl)ccc3Nc3ccccc32)CC1" next?
100

Can you check "CN(C)[S+](=O)([O-])c1ccc2c(c1)C(=Cc1cc3c([nH]1)CCCC3)C(=O)N2" next?
118

Can you check O=C(O)CCC1CCC(c2cc(F)ccc2F)([S+](=O)([O-])c2ccc(Cl)cc2)CC1 (stereo not drawn) next?
103

Can you check "CC1(C)O[C@@H]2C[C@H]3[C@@H]4C[C@H](F)C5=CC(=O)C=C[C@]5(C)[C@@]4(F)[C@@H](O)C[C@]3(C)[C@]2(C(=O)CO)O1" next?
74.9

Can you check CC(C)C1NC(=O)C(NC(=O)C2=C3\N=C\4/C(=C(C)\C(=O)\C(=C4C(=O)NC5C(C)OC(=O)C(C(C)C)N(C)C(=O)CN(C)C(=O)C6CCCN6C(=O)C(NC5=O)C(C)C)N)OC3=C(C)C=C2)C(C)OC(=O)C(C(C)C)N(C)C(=O)CN(C)C(=O)C7CCCN7C1=O (stereo not drawn) next?
9.93

---

Here, each record is paired with measured cell viability data.
System: P12-Ichikawa
procedureDetails: cell viability relative to DMSO control; higher = less cytotoxic
conditionLabel: RPMI 5 mM glucose + 10% FBS; 48 h; 0.000781 µM
API: value field is a number in %; no unit string.

Reference set (5 entries):
[[record]]
compound = "C[C@](O)(CS(=O)(=O)c1ccc(F)cc1)C(=O)Nc1ccc(C#N)c(C(F)(F)F)c1"
measurename = "cell viability"
measured = 104

[[record]]
compound = "C[C@H]1C[C@@H]2[C@H](CC[C@@]3(C)[C@H]2CC[C@]3(OC(C)=O)C(C)=O)[C@@]\\4(C)CCC(=O)\\C=C14"
measurename = "cell viability"
measured = 112

[[record]]
compound = "CNC(=O)c1ccc(N2C(=S)N(c3cnc(C#N)c(C(F)(F)F)c3)C(=O)C23CCC3)cc1F"
measurename = "cell viability"
measured = 86.7

[[record]]
compound = "Cc1onc(-c2ccccc2Cl)c1C(=O)N[C@@H]1C(=O)N2[C@@H]1SC(C)(C)[C@@H]2C(=O)[O-]"
measurename = "cell viability"
measured = 119

[[record]]
compound = "C[S+](=O)([O-])Nc1ccc([N+](=O)[O-])cc1Oc1ccccc1"
measurename = "cell viability"
measured = 122


So what cell viability did "N[S+]([O-])(=O)C1=CC=C(NC/2=C/C(=O)C3=CC=CC=C3C2=O)C=C1" get with P12-Ichikawa?
110

Can you check "CC[C@H](/C=C/[C@@H](C)[C@H]1CC[C@H]2[C@@H]3CC=C4C[C@@H](O)CC[C@]4(C)[C@H]3CC[C@]12C)C(C)C" next?
92.9

Can you check "CN(C)C1CCN(C(=O)c2ccc(NC(=O)Nc3nc(N4CCOCC4)nc(N4CCOCC4)n3)cc2)CC1" next?
85.6

Can you check O=C(O)CCC1CCC(c2cc(F)ccc2F)([S+](=O)([O-])c2ccc(Cl)cc2)CC1 (stereo not drawn) next?
99

Can you check "C[C@@]12C(=O)OC(=O)[C@@]1(C)C1CCC2O1" next?
110
